Let's look at some compounds and their measured selectivity ratio.
assay-remarks: Selectivity ratio of IC50 for MDCK cells to EC50 for Influenza B virus Malaysia/2506/2004 by neutral red dye uptake assay
Assay type: ADME, cell-based
details: dog, MDCK cells; read-out: Ratio IC50/EC50
observed-property: selectivity ratio

INSERT INTO measurements (query_smiles, result) VALUES
  ('Nc1ccn([C@@H]2C[C@H](CO)[C@@H](O)[C@H]2O)c(=O)n1', '> 518'),
  ('Nc1ccn([C@H]2C[C@@H](CO)[C@H](O)[C@@H]2O)c(=O)n1', '< 10'),
  ('NC(=O)c1ncn([C@@H]2O[C@H](CO)[C@@H](O)[C@H]2O)n1', '> 67');

---

assay-remarks: Selectivity ratio of IC50 for MDCK cells to EC50 for inhibition of virus-induced cytopathic effect of Influenza A virus California/07/2009 /H1N1
Assay type: cell-based
details: dog, MDCK cells; read-out: Ratio IC50/EC50
Let's look at some molecules and their measured selectivity ratio.
observed-property: selectivity ratio

INSERT INTO results (query_smiles, result) VALUES
  ('NC(=O)c1ncn([C@@H]2O[C@H](CO)[C@@H](O)[C@H]2O)n1', '> 117'),
  ('Nc1ccn([C@@H]2C[C@H](CO)[C@@H](O)[C@H]2O)c(=O)n1', '> 318'),
  ('Nc1ccn([C@H]2C[C@@H](CO)[C@H](O)[C@@H]2O)c(=O)n1', 1);

---

assay-remarks: Selectivity ratio of IC50 for MDCK cells to EC50 for Influenza A virus Duck/MN/1525/81/H5N1 by neutral red dye uptake assay
Type: ADME, cell-based
details: dog, MDCK cells; read-out: Ratio IC50/EC50
observed-property: selectivity ratio

INSERT INTO measurements (query_smiles, observed_property, inequality_operator, recorded_number) VALUES
  ('Nc1ccn([C@H]2C[C@@H](CO)[C@H](O)[C@@H]2O)c(=O)n1', 'selectivity ratio', '=', 1),
  ('NC(=O)c1ncn([C@@H]2O[C@H](CO)[C@@H](O)[C@H]2O)n1', 'selectivity ratio', '>', 40);

---

assay-remarks: Selectivity ratio of IC50 for MDCK cells to EC90 for Influenza A virus Solomon Islands/03/2006/H1N1 by virus yield reduction assay
Type: ADME, cell-based
details: dog, MDCK cells
observed-property: selectivity ratio

INSERT INTO results (query_smiles, result) VALUES
  ('Nc1ccn([C@@H]2C[C@H](CO)[C@@H](O)[C@H]2O)c(=O)n1', '> 318'),
  ('Nc1ccn([C@H]2C[C@@H](CO)[C@H](O)[C@@H]2O)c(=O)n1', '< 10'),
  ('NC(=O)c1ncn([C@@H]2O[C@H](CO)[C@@H](O)[C@H]2O)n1', '> 49');

---

assay-remarks: Selectivity ratio of IC50 for MDCK cells to EC50 for Influenza A virus Wisconsin/67/2005/H3N2 by neutral red dye uptake assay
Type: ADME, cell-based
details: dog, MDCK cells; read-out: Ratio IC50/EC50
observed-property: selectivity ratio

INSERT INTO assay_data (query_smiles, result) VALUES
  ('NC(=O)c1ncn([C@@H]2O[C@H](CO)[C@@H](O)[C@H]2O)n1', '> 65'),
  ('Nc1ccn([C@H]2C[C@@H](CO)[C@H](O)[C@@H]2O)c(=O)n1', '< 10');
